Experiment: small-molecule binders of probe aLefty1, primary screen, biochemical, small-molecule microarray, 635/667 nm fluorescence (AID 1153);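 further: score merges spot fluorescence with signal-to-noise ratio from the scanned slide images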
Details: higher = more signal
Value Kind: composite z-score
Give the figure by itself; no unit, no explanation.

Could you please provide reported composite z-score for `COc1cccc([C@H]2Oc3ccc(OC)cc3C(=NOC[C@@H](O)[C@H]3O[C@@H]4OC(C)(C)O[C@@H]4[C@H]3O)[C@@H]2O)c1` ? Thanks!
-0.387

Could you please provide reported composite z-score for `CC(C)CON=C1C[C@@H](O)[C@@H](O)[C@@H]2[C@@H]3C(=O)N(C(C)(C)C)C(=O)[C@@H]3CC[C@H]12` ? Thanks!
-0.0162

Could you please provide reported composite z-score for COc1ccc(O[C@H]2C=C[C@@H](c3ccccc3)O[C@@H]2COC(=O)CCC(C)=NOC(C)CN2CCCc3nc(C)c(C)cc32)cc1 (some centres undefined) ? Thanks!
0.0004

Could you please provide reported composite z-score for COc1cccc([C@H]2Oc3ccc(OC)cc3C(=NOC(C)CN3CCCCc4nc(C)c(C)cc43)[C@@H]2O)c1 (some centres undefined) ? Thanks!
-0.103

====

Test: small-molecule binders of probe aInhba, primary screen, biochemical, small-molecule microarray, 635/667 nm fluorescence (AID 1148);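 further: score merges 667nm spot fluorescence with signal-to-noise for antibody binding to printed compounds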
Conditions: higher = more signal
Respond with MET for composite z-score values of -0.2 and above, NOT MET for values below.

Can `CO[C@H]1COC(=O)CC=C[C@@H](C)[C@H](NS(=O)(=O)c2ccc(C)cc2)COC(=O)CCC[C@@H]1C` be said to have composite z-score at or above -0.2?
NOT MET

Can `CO[C@H]1COC(=O)[C@@H](C)COC(=O)[C@H](C)NC(=O)CC=C[C@H]1C` be said to have composite z-score at or above -0.2?
MET

Can `COC(=O)CC=C[C@H](C)[C@@H](OCc1cccc(Br)c1)[C@@H](C)[C@H](OC)C1CCCCC1` be said to have composite z-score at or above -0.2?
MET

Can `CO[C@H](C1CCCCC1)[C@H](C)C=CCC(=O)OCCCc1ccccc1` be said to have composite z-score at or above -0.2?
NOT MET

Can `CC(C)(C)N1C(=O)[C@H]2[C@H]3[C@H](O)[C@H](O)CC(=O)[C@H]3CC[C@H]2C1=O` be said to have composite z-score at or above -0.2?
MET

Can `O=C1C[C@@H](O)[C@@H](O)[C@@H]2[C@@H]3C(=O)N(c4cccc(Oc5ccccc5)c4)C(=O)[C@@H]3CC[C@H]12` be said to have composite z-score at or above -0.2?
MET

Can `CCOC(=O)NN=C1C[C@@H](O)[C@@H](O)[C@@H]2[C@@H]3C(=O)N([C@@H](C)c4ccccc4)C(=O)[C@@H]3CC[C@H]12` be said to have composite z-score at or above -0.2?
MET

Can `CCCNC(=O)OC[C@H]1O[C@H](CCON=Cc2ccc(C(=O)N3[C@H](c4ccc(C)cc4)[C@@H](C)CC[C@H]3C(=O)OC)cc2)C=C[C@@H]1Oc1ccc(OC)cc1` be said to have composite z-score at or above -0.2?
MET

Can `CCCCC#C[C@@H]1C=C[C@H](Oc2ccc(C(=O)OC)cc2)[C@@H](COC(=O)OCC)O1` be said to have composite z-score at or above -0.2?
MET

Can CC1O[C@H]2C3=C(C(=O)[C@@H]4O[C@@H]4[C@H]3O)[C@@H]1C1[C@@H](C)OC=C3[C@H](O)C4O[C@@H]4C(=NOCc4ccccc4)[C@]312 (some centres not stated) be said to have composite z-score at or above -0.2?
MET

Can `COC(=O)CC=C[C@@H](C)[C@@H](C=NOC[C@H]1O[C@H](c2ccccc2)C=C[C@@H]1Oc1ccc(OC)cc1)NS(=O)(=O)c1ccc(C)cc1` be said to have composite z-score at or above -0.2?
NOT MET

Can `Cc1cc2c(c(=O)o1)[C@@H](O)[C@H]1O[C@H]1C2=O` be said to have composite z-score at or above -0.2?
MET

Can CCOC(=O)[C@H](Cc1ccccc1)NC(=O)CCC1CC(OC(=O)NCCc2ccc(F)cc2)CC2(CCCC(COC(=O)NCc3ccccc3)O2)O1 (some centres not stated) be said to have composite z-score at or above -0.2?
MET

Can `CC=CC1=C(CO)C(=O)[C@@H]2O[C@@H]2C1=O` be said to have composite z-score at or above -0.2?
MET

Can O=C1CCCC(C2=CCCCC2=O)C1 (configuration not stated) be said to have composite z-score at or above -0.2?
MET

Can CCC1=NOC(CCC2CC(OC(=O)NCc3cccc4c3OCO4)CC3(CCCC(COC(=O)NCCc4ccccc4OC)O3)O2)C1 (configuration not stated) be said to have composite z-score at or above -0.2?
MET

Can `CO[C@H]1COC(=O)[C@@H](C)COC(=O)[C@@H](OCc2ccccc2)C=C[C@@H]1C` be said to have composite z-score at or above -0.2?
MET

====

Assay: binders of probe aFST on microarray, primary screen, stem cell growth factor project, biochemical, small-molecule microarray, fluorescence 635/667 (AID 1086);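 further: score merges 667 nm fluorescence with signal-to-noise of each printed compound spot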
Conditions: higher = more signal
Provide the reported composite z-score of each item.
Give the figure by itself; no unit, no explanation.

Could you please provide reported composite z-score for CCOC(=O)[C@H](Cc1ccccc1)NC(=O)CCC1CC(OC(=O)NCCc2ccc(F)cc2)CC2(CCCC(COC(=O)NCC3CCCCC3)O2)O1 (stereo not given in full) ? Thanks!
0.676

Could you please provide reported composite z-score for `CO[C@@H]1COC(=O)[C@H](CCSC)NC(=O)CC=C[C@@H](C)COC(=O)CCC[C@H]1C` ? Thanks!
1.41

Could you please provide reported composite z-score for `C[n+]1ccc(-c2ccc(CO)cc2)cc1` ? Thanks!
-0.0846

Could you please provide reported composite z-score for CCOC(=O)[C@H](CC(C)C)NC(=O)CCC1CC(OC(=O)NCc2ccc3c(c2)OCO3)CC2(CCCC(COC(=O)NCC3CCCCC3)O2)O1 (stereo not given in full) ? Thanks!
0.293

Could you please provide reported composite z-score for `C=CC[C@@H]1C=C[C@H](ON=C2[C@H]3CCn4c(=O)n(-c5ccccc5)c(=O)n4[C@H]3[C@H](O)[C@@H]3O[C@H]23)[C@@H](CO)O1` ? Thanks!
0.0716

Could you please provide reported composite z-score for `O=C1[C@H]2[C@H]3[C@H](O)[C@H](O)CC(=NOCc4ccccc4)[C@@H]3CC[C@H]2C(=O)N1C[C@@H]1CCCO1` ? Thanks!
0.271

Could you please provide reported composite z-score for `C[C@@H]1C=CCC(=O)OC[C@H]2O[C@@H](C=C[C@@H]2O)[C@H](C)C=CCC(=O)OC1` ? Thanks!
-0.291

Could you please provide reported composite z-score for COC(=O)CC=C[C@@H](C)[C@@H](C=NOC(C)CN1CCCc2nc(C)c(C)cc21)OC (stereo not given in full) ? Thanks!
0.0017

Could you please provide reported composite z-score for CCOC(=O)[C@H](CC(C)C)NC(=O)CCC1CC(OC(=O)NCc2cccc3ccccc23)CC2(CCCC(COC(=O)NCCC(C)C)O2)O1 (stereo not given in full) ? Thanks!
-0.128

Could you please provide reported composite z-score for `C[C@@H]1NC(=O)[C@@H](C)COC(=O)[C@H](C)NC(=O)[C@@H](C)COC1=O` ? Thanks!
0.253

====

Provide the reported z-score of each item.
Assay: CREB reporter modulators under forskolin, primary screen, cell-based, PC12, CRE-LacZ reporter, forskolin-stimulated (AID 1146);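 further: PC12 cells with 6xCRE LacZ reporter stimulated by forskolin 10 µM; beta-galactosidase reporter signal reflecting CREB driven transcription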
Settings: luminescence, 4.5 h, higher = more signal, called active from +8 up or from −8 down
Give the figure by itself; no unit, no explanation.

Could you please provide reported z-score for `Cn1c(=O)n2n(c1=O)[C@H]1[C@H](O)[C@@H]3O[C@@H]3C(=O)[C@H]1CC2` ? Thanks!
-0.69

Could you please provide reported z-score for `CCN1C(=O)[C@H]2[C@H]3[C@H](O)[C@H](O)CC(=O)[C@@H]3CC[C@H]2C1=O` ? Thanks!
-0.69

Could you please provide reported z-score for `CC(CCN1CCc2nc(-c3ccccc3)c(-c3ccccc3)cc2C1)=NOC[C@@H](O)COCc1ccco1` ? Thanks!
-0.724

Could you please provide reported z-score for `C=CC[C@@H]1C=C[C@H](ON=C2[C@H]3CCn4c(=O)n(-c5ccccc5)c(=O)n4[C@H]3[C@H](O)[C@@H]3O[C@H]23)[C@@H](CO)O1` ? Thanks!
0.312

====

Provide the reported composite z-score of each item.
Molecular target: Focal adhesion kinase 1 (Homo sapiens) (UniProt Q05397)
Sequence (Q05397 whole entry, looked up): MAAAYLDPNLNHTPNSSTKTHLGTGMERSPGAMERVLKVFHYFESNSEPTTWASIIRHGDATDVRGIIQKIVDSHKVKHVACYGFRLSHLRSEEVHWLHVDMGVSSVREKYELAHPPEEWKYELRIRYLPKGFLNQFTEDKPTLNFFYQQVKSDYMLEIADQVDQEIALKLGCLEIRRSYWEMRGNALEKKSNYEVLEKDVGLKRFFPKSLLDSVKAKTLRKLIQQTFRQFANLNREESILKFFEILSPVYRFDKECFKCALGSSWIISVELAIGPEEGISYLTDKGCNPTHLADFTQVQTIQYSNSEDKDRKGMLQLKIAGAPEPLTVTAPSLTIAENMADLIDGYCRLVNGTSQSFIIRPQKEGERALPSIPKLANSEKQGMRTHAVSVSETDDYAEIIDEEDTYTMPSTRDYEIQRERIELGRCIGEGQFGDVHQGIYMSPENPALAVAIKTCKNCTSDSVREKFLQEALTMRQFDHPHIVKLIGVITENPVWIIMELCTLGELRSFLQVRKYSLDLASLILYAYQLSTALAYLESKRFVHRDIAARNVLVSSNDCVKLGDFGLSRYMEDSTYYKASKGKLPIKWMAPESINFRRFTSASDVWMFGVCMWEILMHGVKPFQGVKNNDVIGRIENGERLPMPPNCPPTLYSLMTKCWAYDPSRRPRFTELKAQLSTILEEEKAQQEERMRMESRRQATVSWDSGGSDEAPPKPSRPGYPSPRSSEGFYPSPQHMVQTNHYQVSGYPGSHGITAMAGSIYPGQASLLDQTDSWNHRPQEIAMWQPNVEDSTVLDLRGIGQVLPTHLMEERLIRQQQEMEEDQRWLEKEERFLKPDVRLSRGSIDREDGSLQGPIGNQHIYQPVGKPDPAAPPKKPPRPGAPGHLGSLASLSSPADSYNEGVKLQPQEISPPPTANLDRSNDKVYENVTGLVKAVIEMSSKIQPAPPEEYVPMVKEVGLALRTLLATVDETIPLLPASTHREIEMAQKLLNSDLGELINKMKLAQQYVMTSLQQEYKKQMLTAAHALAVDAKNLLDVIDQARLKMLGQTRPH
Assay: small-molecule microarray binders of FAK, primary screen, biochemical, 635/667 nm fluorescence, BSA, DTT (AID 1130);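 further: composite of spot emission at 667 nm and signal to noise over triplicate slides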
Details: PTK2 binding, 635 nm fluorescence, higher = more signal
Give the figure by itself; no unit, no explanation.

Could you please provide reported composite z-score for COC(=O)[C@H](C)NC(=O)CCC1CC(OC(=O)NCc2cccc3ccccc23)CC2(CCCC(COC(=O)NCC(c3ccccc3)c3ccccc3)O2)O1 (stereo partly specified) ? Thanks!
0.713

Could you please provide reported composite z-score for CCOC(=O)[C@H](Cc1ccccc1)NC(=O)CCC1CC(OC(=O)NCc2ccc3c(c2)OCO3)CC2(CCCC(COC(=O)NCCc3ccccc3OC)O2)O1 (stereo partly specified) ? Thanks!
0.492

Could you please provide reported composite z-score for `CON=Cc1ccc(C(=O)N2[C@H](c3ccc(C)cc3)[C@@H](C)CC[C@H]2C(=O)OC)cc1` ? Thanks!
-0.176

Could you please provide reported composite z-score for `CC(C)CON=C1C[C@@H](O)[C@@H](O)[C@@H]2[C@@H]3C(=O)N(c4ccc(F)cc4F)C(=O)[C@@H]3CC[C@H]12` ? Thanks!
0.436

Could you please provide reported composite z-score for `CC=CC1=C(CO)C(=O)[C@@H]2O[C@@H]2C1=O` ? Thanks!
-0.681

Could you please provide reported composite z-score for CCOC(=O)[C@H](Cc1ccccc1)NC(=O)CCC1CC(OC(=O)NCc2cccc3ccccc23)CC2(CCCC(COC(=O)NCc3ccccc3)O2)O1 (stereo partly specified) ? Thanks!
0.172

Could you please provide reported composite z-score for `COC(=O)CC=C[C@@H](C)[C@@H](C=NO[C@H](C)c1cn([C@@H]2COC[C@H]2O)nn1)NS(=O)(=O)c1ccc(C)cc1` ? Thanks!
-0.217

Could you please provide reported composite z-score for `CC(C)=CCCC(C)=CCON=C1C[C@@H](O)[C@@H](O)[C@@H]2[C@@H]3C(=O)N(c4ccc(F)cc4F)C(=O)[C@@H]3CC[C@H]12` ? Thanks!
0.631

Could you please provide reported composite z-score for `C=COC[C@@H]1CN2[C@@H](CC[C@@H](C)[C@@H]2c2ccc(Br)cc2)C(=O)O1` ? Thanks!
0.18

Could you please provide reported composite z-score for `CCOC(=O)NN=C1C[C@@H](O)[C@@H](O)[C@@H]2[C@@H]3C(=O)N(c4cccc(Oc5ccccc5)c4)C(=O)[C@@H]3CC[C@@H]12` ? Thanks!
0.0767

Could you please provide reported composite z-score for `Cn1c(=O)n2n(c1=O)[C@H]1[C@H](O)[C@@H]3O[C@@H]3C(=NOCc3ccccc3)[C@H]1CC2` ? Thanks!
0.13

Could you please provide reported composite z-score for `CCCNC(=O)OC[C@H]1O[C@H](CCON=C(C)C)C=C[C@@H]1Oc1ccc(OC)cc1` ? Thanks!
0.105

Could you please provide reported composite z-score for `CC(C)[C@@H](OCc1ccccc1)[C@H](C)C=NOC[C@@H](O)COCc1ccco1` ? Thanks!
-0.277

Could you please provide reported composite z-score for `CO[C@@H]1COC(=O)CC=C[C@@H](C)[C@@H]2C=C[C@H](O)[C@@H](COC(=O)CC=C[C@H]1C)O2` ? Thanks!
-0.649

Could you please provide reported composite z-score for `Cc1cc2c(c(=O)o1)[C@@H](O)[C@H]1O[C@H]1C2=O` ? Thanks!
0.123

Could you please provide reported composite z-score for `CC(C)=CCCC(C)=CCON=C1C[C@@H](O)[C@@H](O)[C@@H]2[C@@H]3C(=O)N(C4CCCCC4)C(=O)[C@@H]3CC[C@@H]12` ? Thanks!
0.0165
